- procedureSummary: tubulin staining increase by stabilizing compounds – imaging, high-content imaging, primary screen (AID 2205)
- condition: HeLa tubulin immunostaining HCS, 24 h, at 10 µM; measured here: nuclear condensation Hoechst responders, stronger effect = higher value, share of cells brighter than vehicle mean+2SD
Hit rate of the full screen: of about 200,000 compounds, about 1,600 (0.8%) were called active. This is one part of a sample in which actives are shown more often than they occur.
Param threshold (5%) applies to % Hoechst-high responders; output 1 (yes) when value >= threshold, 0 (no) when value < threshold.

Tell me whether % Hoechst-high responders is at least 5% here: Cc1cccc(C)c1NC(=O)C(c1ccccc1)N1CC(=O)Nc2ccccc21 (stereo not drawn)
0 (no)

Tell me whether % Hoechst-high responders is at least 5% here: CC(C(=O)NCC1CCCCC1)N(C)Cc1cccc(Cl)c1 (stereo not drawn)
0 (no)

Tell me whether % Hoechst-high responders is at least 5% here: O=C(Nc1ccccc1)/C(=C/c1ccc([N+](=O)[O-])cc1)NC(=O)c1ccccc1
0 (no)

Tell me whether % Hoechst-high responders is at least 5% here: O=C(CN1CCC(O)(c2ccccc2)CC1)Nc1ccc2c(c1)OCCO2
0 (no)

Tell me whether % Hoechst-high responders is at least 5% here: Cc1ccc(Nc2ccccc2N)cc1
1 (yes)

Tell me whether % Hoechst-high responders is at least 5% here: CCOC(=O)Cc1ncccc1C(=O)Nc1ccc(OC)cc1
0 (no)

Tell me whether % Hoechst-high responders is at least 5% here: CCOC(=O)c1sc2nc(CSc3ccccc3)[nH]c(=O)c2c1C
1 (yes)

Tell me whether % Hoechst-high responders is at least 5% here: Cc1ccc(S(=O)(=O)N(C)C)cc1NC(=O)COC(=O)C1COc2ccccc2O1 (stereo not drawn)
0 (no)

Tell me whether % Hoechst-high responders is at least 5% here: CCOC(=O)N/N=C/c1cn(Cc2ccccc2Cl)c2ccccc12
0 (no)

Tell me whether % Hoechst-high responders is at least 5% here: CC(=O)c1ccc(Oc2cc(C)nc(-n3nc(C)cc3C)n2)cc1
1 (yes)

Tell me whether % Hoechst-high responders is at least 5% here: COc1ccc2c(c1)C(c1cccs1)=NNC(c1cccnc1)=N2
0 (no)

Tell me whether % Hoechst-high responders is at least 5% here: Cc1ccc2nc(-c3ccncc3)cc(C(=O)Nc3ccc4c(c3)OCCO4)c2c1
0 (no)
